# reported Top; entries follow
- target_desc: human CD73 on the cell surface (293T/17-huCD73 cells) (human) (UniProt P21589)
- Sequence (P21589 27-549): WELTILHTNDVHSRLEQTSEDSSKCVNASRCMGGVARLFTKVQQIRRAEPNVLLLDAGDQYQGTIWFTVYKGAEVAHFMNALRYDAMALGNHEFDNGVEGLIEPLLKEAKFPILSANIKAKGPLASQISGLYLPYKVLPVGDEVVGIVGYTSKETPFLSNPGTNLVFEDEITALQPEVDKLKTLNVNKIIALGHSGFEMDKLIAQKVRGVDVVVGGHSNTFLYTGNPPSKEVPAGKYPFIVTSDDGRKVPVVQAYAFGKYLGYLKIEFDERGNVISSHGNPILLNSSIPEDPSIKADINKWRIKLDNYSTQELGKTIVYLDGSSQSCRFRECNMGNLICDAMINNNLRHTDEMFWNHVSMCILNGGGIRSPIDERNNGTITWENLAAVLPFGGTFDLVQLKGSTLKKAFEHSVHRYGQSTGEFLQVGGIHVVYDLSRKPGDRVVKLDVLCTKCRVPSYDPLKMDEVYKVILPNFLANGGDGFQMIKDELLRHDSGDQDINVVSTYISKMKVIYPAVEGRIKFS
- procedure_summary: flow cytometry on 293T/17-human CD73 cells, curve fit
Provide the reading as a plain figure in fluorescence.

Known Top results, listed for orientation:
INSERT INTO results (binder, unit_of_measurement, recorded_number) VALUES
  ('JB24H3L3 (antibody, human IgG1, kappa, V domains shown) VH: QVQLVQSGAEVKKPGASVKMSCKASGYTFTDYNMHWVKQSHGKSLEWIGYIKPHNAGTTYNPKFEGRATLTVDTSASTAYMELRSLRSEDTAVYYCVRSDFLYWYFDVWGQGTTVTVSS VL: DIVMTQSPSSLSASVGDRVTITCTASSSVSSSYLHWYQQKPGSSPKLWIYSTSNLASGVPGRFSGSGSGTDYTLTISSLQPEDFATYYCHQYHRSPLTFGAGTKLEIKR', 'fluorescence', 120),
  ('JB94H2L1 (antibody, human IgG1, kappa, V domains shown) VH: QVQLVQSGAEVKKPGASVKVSCKASGYTFTSYWMHWVRQRPGQGLEWMGYINPSSGYTKSNQKFKDRVTLTADTSTSTAYMELSSLRSEDTAVYYCGRWLLSAWFAYWGQGTLVTVSS VL: DIQMTQSPSSLSASVGDRVTITCKASQDINTYLSWFQQKPGKAPKSLIYRSNILVDGVPSRFSGSGSGQDFTLTISSLQPEDFAIYYCLQYDDFPYTFGQGTKLEIKR', 'fluorescence', 223),
  ('JB24H2L1 (antibody, human IgG1, kappa, V domains shown) VH: QVQLVQSGAEVKKPGASVKMSCKASGYTFTDYNMHWVRQSPGKSLEWIGYIKPHNAGTTYNPKFEGRATLTVDTSASTAYMELSSLRSEDTAVYYCVRSDFLYWYFDVWGQGTTVTVSS VL: DIQMTQSPSSLSASVGDRVTITCTASSSVSSSYLHWYQQKPGKAPKLLIYSTSNLASGVPSRFSGSGSGTDFTLTISSLQPEDFATYYCHQYHRSPLTFGAGTKLEIKR', 'fluorescence', 82.2),
  ('JB24H3L2 (antibody, human IgG1, kappa, V domains shown) VH: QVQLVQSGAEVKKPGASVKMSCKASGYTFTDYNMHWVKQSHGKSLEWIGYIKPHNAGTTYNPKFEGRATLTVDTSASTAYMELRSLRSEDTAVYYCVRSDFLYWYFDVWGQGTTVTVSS VL: DIQMTQSPSSLSASVGDRVTITCTASSSVSSSYLHWYQQKPGSAPKLWIYSTSNLASGVPSRFSGSGSGTDYTLTISSLQPEDFATYYCHQYHRSPLTFGAGTKLEIKR', 'fluorescence', 91.7);

[Q] Tell me the measured Top of JB94H3L3 (antibody, human IgG1, kappa, V domains shown) VH: QVQLQQSGAEVKKPGASVKLSCKASGYTFTSYWMHWVRQRPGQGLEWIGYINPSSGYTKSNQKFKDRATLTADTSTSTAYMELSSLRSEDTAVYYCGRWLLSAWFAYWGQGTLVTVSS VL: DIQMTQSPSSLSASVGDRVTITCKASQDINTYLSWFQQKPGKSPKSLIYRSNILVDGVPSRFSGSGSGQDYTLTISSLQPEDFAIYYCLQYDDFPYTFGQGTKLEIKR , please.
[A] 239

[Q] Tell me the measured Top of JB24Chi (antibody, human IgG1, kappa, V domains shown) VH: QVQLQQSGLELVKPGASVKMSCKASGYTFTDYNMHWVKQSHGKSLEWIGYIKPHNGGTTYNPKFEGKATLTVNKSSSTAYMELRSLTSEDSAVYYCVRCDFLYWYFDVWGTGTTVTVSS VL: DIVMTQSPAIMSASLGERVTMTCTASSSVSSSYLHWYQQKPGSSPKLWIYSTSNLASGVPGRFSGSGSGTSYSLTISSMEAEDAATYYCHQYHRSPLTFGAGTKLEMKR , please.
[A] 196
